Molecular target: T1, human NTB-A (human, UniProt Q96DU3 22-332)
T1 construct: Endogenous NTB-A on antigen-positive Ramos cells (also on MM.1R, WIL2-S and Raji cells and normal human T and B lymphocytes); also called SLAMF6; human NTB-A isoform-1
T1 sequence: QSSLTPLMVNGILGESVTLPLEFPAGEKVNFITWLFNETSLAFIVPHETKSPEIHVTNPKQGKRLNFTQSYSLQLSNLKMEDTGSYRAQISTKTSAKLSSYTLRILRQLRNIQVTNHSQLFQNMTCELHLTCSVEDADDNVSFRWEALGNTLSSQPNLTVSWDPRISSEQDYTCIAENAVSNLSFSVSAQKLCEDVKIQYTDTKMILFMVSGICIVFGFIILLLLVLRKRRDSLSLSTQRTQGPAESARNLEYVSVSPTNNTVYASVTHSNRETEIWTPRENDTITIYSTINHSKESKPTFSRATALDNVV
Assay: competition flow cytometry on Ramos cells; competitor 5 nM mouse 20F3-Alexa Fluor 647
I'd appreciate it if you could supply EC50 values for the items below.
Numbers only, in nM.

Quick one: give me EC50 for each item below, same order please.
1. murine 20F3 antibody (antibody, mouse IgG1, V domains shown, also called mouse 20F3) VH: QIQLVQSGPELKKPGETVKISCKASGYTFTNYGMNWVKQAPGKDLKWMGWINTYSGEPRYADDFKGRFAFSLEKSANTAYLQINNLKNEDMATYFCARDYGRWYFDVWGTGTTVTVSS VL: QIVLSQSPAILSASPGEKVTMTCRASSSVSHMHWYQQKPGSSPKPWIYATSNLASGVPARFSGSGSGTSYSLTISRVEAEDAATYYCQQWSSTPRTFGGGTKLEIKR
2. humanized 20F3 HCLA (antibody, V domains shown, Humanized heavy chain HC paired with humanized light chain LA) VH: QIQLVQSGSELKKPGASVKVSCKASGYTFTNYGMNWVRQAPGQDLEWMGWINTYSGEPRYADDFKGRFVFSLDKSVNTAYLQISSLKAEDTAVYYCARDYGRWYFDVWGQGTTVTVSS VL: EIVLTQSPATLSLSPGERATLSCRASSSVSHMHWYQQKPGQAPRLLIYATSNLASGIPARFSGSGSGTDFTLTISSLEPEDFAVYYCQQWSSTPRTFGGGTKVEIKR
3. humanized 20F3 HBLD (antibody, V domains shown, Humanized heavy chain HB paired with humanized light chain LD) VH: QIQLVQSGSELKKPGASVKVSCKASGYTFTNYGMNWVRQAPGQGLEWMGWINTYSGEPRYADDFKGRFVFSLDKSVSTAYLQISSLKAEDTAVYYCARDYGRWYFDVWGQGTTVTVSS VL: QIVLSQSPATLSLSPGERATMSCRASSSVSHMHWYQQKPGQAPRPWIYATSNLASGVPARFSGSGSGTDYTLTISSLEPEDFAVYYCQQWSSTPRTFGGGTKVEIKR
4. humanized 20F3 HALC (antibody, V domains shown, Humanized heavy chain HA paired with humanized light chain LC) VH: QVQLVQSGSELKKPGASVKVSCKASGYTFTNYGMNWVRQAPGQGLEWMGWINTYSGEPRYADDFKGRFVFSLDTSVSTAYLQISSLKAEDTAVYYCARDYGRWYFDVWGQGTTVTVSS VL: QIVLSQSPATLSLSPGERATLSCRASSSVSHMHWYQQKPGQAPRPWIYATSNLASGIPARFSGSGSGTDYTLTISSLEPEDFAVYYCQQWSSTPRTFGGGTKVEIKR
5. humanized 20F3 HELB (antibody, V domains shown, Humanized heavy chain HE paired with humanized light chain LB) VH: QIQLVQSGSELKKPGASVKVSCKASGYTFTNYGMNWVKQAPGQDLKWMGWINTYSGEPRYADDFKGRFAFSLDKSVNTAYLQISSLKAEDTAVYFCARDYGRWYFDVWGQGTTVTVSS VL: EIVLTQSPATLSLSPGERATLSCRASSSVSHMHWYQQKPGQAPRPWIYATSNLASGIPARFSGSGSGTDYTLTISSLEPEDFAVYYCQQWSSTPRTFGGGTKVEIKR

[2, 25, 4, 27, 4]
